Recorded pEC50, one value per entry.
Study System: human apelin receptor (Homo sapiens, UniProt P35414)
Sequence (P35414 whole entry): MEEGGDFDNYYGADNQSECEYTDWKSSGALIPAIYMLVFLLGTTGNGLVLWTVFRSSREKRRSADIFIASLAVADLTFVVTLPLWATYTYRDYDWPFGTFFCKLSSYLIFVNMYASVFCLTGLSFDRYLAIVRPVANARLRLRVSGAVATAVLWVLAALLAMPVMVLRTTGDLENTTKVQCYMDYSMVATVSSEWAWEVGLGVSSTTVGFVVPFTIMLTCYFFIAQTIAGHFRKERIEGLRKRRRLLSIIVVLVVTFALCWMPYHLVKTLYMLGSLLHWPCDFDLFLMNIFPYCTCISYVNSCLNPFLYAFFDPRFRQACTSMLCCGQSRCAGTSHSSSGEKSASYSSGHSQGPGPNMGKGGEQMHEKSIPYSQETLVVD
Run Description: Measurement of apelin receptor agonist activity (cell-based assay determining the amount of intracellular cAMP)
Setup Conditions: CHO cells stably expressing the human apelin receptor, Forskolin 10 μM, 30 minutes, 100% efficacy = [Pyr1]-apelin-13 0.300 μM, concentration giving 50% efficacy
Please report pEC50 as the negative decimal logarithm of the molar concentration, giving only the number.

compound="COc1cccc(OC)c1-n1c(-c2ccc(C)o2)nnc1S(C)(=O)=O [Example 86]" outcome_measure=pEC50 reported_value=5.69
compound="COc1cccc(OC)c1-n1c(SCc2cc[nH]c(=O)c2)nnc1-c1ccc(C)o1 [Example 18]" outcome_measure=pEC50 reported_value=6.25
compound="COc1cccc(OC)c1-n1c(-c2cccc(C(=O)O)c2)nnc1-c1ccc(C)o1 [Example 46]" outcome_measure=pEC50 reported_value=7.02
compound="CCOC(=O)C(=O)NCc1nnc(-c2ccc(C)o2)n1-c1c(OC)cccc1OC [Example 97]" outcome_measure=pEC50 reported_value=6.56
compound="COC(=O)C(Sc1nnc(-c2ccc(C)o2)n1-c1c(OC)cccc1OC)c1cccc2ccccc12 (stereo not shown) [Example 37]" outcome_measure=pEC50 reported_value=6.08
compound="COc1cccc(OC)c1-n1c(/C=C\\C(=O)O)nnc1-c1ccc(C)o1 [Example 56]" outcome_measure=pEC50 reported_value=7.32
compound="COc1cccc(OC)c1-n1c(CN(C(=O)c2ccc(C)cc2)C(=O)c2ccc(C)cc2)nnc1-c1ccc(C)o1 [Example 72]" outcome_measure=pEC50 reported_value=7.02
compound="COc1cccc(OC)c1-n1c(/C=C/C(=O)N(C)C)nnc1-c1ccc(C)o1 [Example 21]" outcome_measure=pEC50 reported_value=6.27

Problem: Looking for the measured pEC50 of CCOC(=O)C(=O)/C=C/c1nnc(-c2ccc(C)o2)n1-c1c(OC)cccc1OC [Example 51] , can you help?
Result: 6.95

Problem: Now try COc1cccc(OC)c1-n1c(SCc2ccccc2)nnc1-c1ccc(C)o1 [Example 40] .
Result: 5.95

Problem: Now try COc1cccc(OC)c1-n1c(SCc2cc(=O)n3cc(Cl)ccc3n2)nnc1-c1ccc(C)o1 [Example 3] .
Result: 8.70

Problem: Now try COc1cccc(OC)c1-n1c(-c2ccc(C)o2)nnc1-c1ccccc1C(=O)O [Example 59] .
Result: 6.46

Problem: Now try CCc1cccc(CC)c1-n1c(SCC(=O)O)nnc1-c1ccc(C)o1 [Example 31] .
Result: 6.76
